Tested on: A431 cells (epidermoid cells obtained from a human squamous cell carcinoma)
Assay: inhibition of cell growth by tazarotene, A431
Type: cell-based
Conditions: Homo sapiens, A-431; A431, model estimate
property: IC50
A complete answer gives the number followed by the unit.

The compound listed as CCOC(=O)c1ccc(C#Cc2ccc3c(c2)C(C)(C)CCS3)nc1 shows IC50 equal to 36.3 µM

----------
System: human keratinocyte cell line
Experiment: combinatorial dose response surface study of cell viability (PSI), KX01 and calcipotriol
Format: cell-based
Conditions: model estimate
property: pIC50
The quantity pIC50 is defined as the negative base-10 logarithm of the molar concentration.

The compound listed as C=C1/C(=C\C=C2/CCC[C@]3(C)[C@@H]([C@H](C)/C=C/[C@@H](O)C4CC4)CC[C@@H]23)C[C@@H](O)C[C@@H]1O shows pIC50 equal to 7.23

----------
System: cell proliferation/growth
Test: combined treatment with KX01 and tazarotene, inhibition of cell proliferation/growth
Type: cell-based
Conditions: column head says nM
property: IC50 (nM)
Numeric only. Scale: nM

The compound listed as CCOC(=O)c1ccc(C#Cc2ccc3c(c2)C(C)(C)CCS3)nc1 shows IC50 equal to 13300
